Origin of the recorded values: the RNAGym collection of RNA variant scans (doi:10.1073/pnas.2313332121)

B1: TPR 5TU (parent)
chain: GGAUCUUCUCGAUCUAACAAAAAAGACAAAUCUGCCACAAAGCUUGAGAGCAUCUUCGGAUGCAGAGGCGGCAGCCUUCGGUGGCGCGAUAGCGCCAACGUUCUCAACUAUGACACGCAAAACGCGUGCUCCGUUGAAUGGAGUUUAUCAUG

variants of: B1; assay: polymerase ribozyme fitness, log enrichment relative to wild type (log ratio); higher = more active; in vitro selection for triplet polymerase activity
Fewer inactive variants are shown than the library holds.
Recorded endpoint: polymerase ribozyme fitness (log ratio)

Mutant label | Readout qualifier | Reading
A21C G68C C69A C93G U144G | ≤ | -4.2
C57G | = | -0.448
U134A U148G | ≤ | -4.2
C5U A16U A26U U44A A52G G92C | ≤ | -4.2
G25C G46A U144C | = | -4.12
A97G | = | -0.12
A22C A28G C36A U55A C87A C118G | ≤ | -4.2
A40U G86A | = | -0.914
A21C G25A | = | -2.85
U33G U53A | = | -3.68
G94C A122C A137U | = | -4.05
A98U C129U | = | 0.463
A20G A29U C51G C87G | ≤ | -4.2
C18U U33A A39U A52C C72U G94A C95U C132U | ≤ | -4.2
C93A C125U | = | -2.47
A24U C54A G86A | = | -3.38
C8G A20C G67C G68C A113U | ≤ | -4.2
G88A C96A C125U G126U | ≤ | -4.2
A17U G65C A89U C93G G112C | ≤ | -4.2
A20C C43U U44A U55G C79U G141A | ≤ | -4.2
A28C G58U A113G A119U | ≤ | -4.2
A16G C69U C85U C131G A142U | ≤ | -4.2
